Data origin, for the record: ChEMBL document CHEMBL5725409

// reported pIC50 for each item listed
- assayComment: Kinase Assay: In vitro kinase assays were carried out by using recombinant murine c-abl containing SH3, SH2 and kinase domains (residues 46-531) and full length immunoprecipitated Bcr-abl. Recombinant abl was expressed in Sf9 insect cells and purified as described above. Bcr-abl immune complexes were obtained with Ab-3 anti-abl monoclonal antibody (Oncogene Science) from Ba/F3.p210 lysates as previously described. 1 μg of recombinant abl or immunoprecipitated Bcr-abl (from 3×10^6 cells) were incubated with various concentrations of test compound (0.1, 1 and 10 M) in kinase buffer (50 mM Tris-HCl pH 7.5, 10 mM MgCl2, […], 1 mM DTT, 0.015% Brij 35), 100 μM ATP and 1 μCi [γ-32P]-ATP for 30 min at 30° C. (Calbiochem buffer and protocol). The reaction was stopped by addition of Laemmli buffer and the proteins were resolved by SDS-PAGE in a 4-20% gel. The phosphoproteins were visualized by autoradiography and the autophosphorylation quantitated using a phosphoimager (STORM, Molecular Devices).
Friendly reminder that pIC50 comes from taking -log10 of the concentration in mol/L.

Item under review: `O=C(NC(=O)c1cc2c(Nc3ccc(OC(F)(F)F)cc3)ncnc2s1)c1cccc(C(F)(F)F)c1` . Reported pIC50?
5.84

Also need `COc1cc(-c2cc(Nc3ccc(OC(F)(F)F)cc3)ncn2)co1` , thanks.
6.03
